- Test System: mFAP_pH
- Construct: de novo designed beta-barrel; large-scale protein purification
- Experiment: Fluorescence titration of DFHBI into 500 nM protein in Na2HPO4-citrate buffer with 143 mM NaCl at pH 7.34 (excitation 483 nm, emission 503 nm), fit to a single-binding site isotherm.
- Stated Conditions: read-out: affinities (Kd values), phenolate form of DFHBI
Endpoint Name: Kd

Task: # lookup: Kd of `CC1=N/C(=C\c2cc(F)c(O)c(F)c2)C(=O)N1C`
Output: ~160 nM

====

- Test System: mFAP_pH
- Construct: de novo designed beta-barrel; large-scale protein purification
- Experiment: Fluorescence titration of DFHBI into 500 nM protein in Na2HPO4-citrate buffer with 143 mM NaCl at pH 3.61 (excitation 379 nm, emission 498 nm), fit to a single-binding site isotherm.
- Stated Conditions: read-out: affinities (Kd values), phenolic form of DFHBI
pKd: −log10 of the molar value.
Endpoint Name: pKd

Task: # lookup: pKd of `CC1=N/C(=C\c2cc(F)c(O)c(F)c2)C(=O)N1C`
Output: ~6.72
